target: Cytochrome P450 1A2 (Homo sapiens); assay: Cytochrome panel assay with activity outcomes; details: recombinant CYP, pro-luciferin dealkylation, luminescence, p450-cyp1a2; series mostly up to 57.1 µM
The whole screen tested about 16,000 compounds, of which about 5,700 (36%) were called active. Roughly 24% stayed inconclusive and do not appear here. Some of the results follow.
METRIC: AC50

compound=O=[N+]([O-])c1ccccc1N/N=C/c1c[nH]c2ccccc12 meas_value="5.62 µM (active)"
compound=Cc1ccc(NC(=O)CN(C)C(=O)CSc2n[nH]c(N)n2)cc1 meas_value=inactive
compound=COc1cccc(-c2nccc(NCc3ccccc3)n2)c1 meas_value="0.501 µM (active)"
compound=COc1cccc(Cn2c(=O)c(-c3ccccc3)nc3cnc(N4CCN(C)CC4)nc32)c1 meas_value=inactive
compound=CCCc1nnc(SCC(=O)N2CCCCC2)n1CCCOC meas_value=inactive
compound=COc1ccccc1CNc1ncncc1-c1ccccc1Cl meas_value="10 µM (active)"
compound=COCCn1c(=O)c(-c2cccs2)nc2cnc(N3CCN(C)CC3)nc21 meas_value="15.8 µM (active)"
compound=COc1ccc(-c2cc(C(F)(F)F)nc(NCc3cccnc3)n2)cc1 meas_value="0.794 µM (active)"

Supply measured AC50 of COc1ccccc1CNc1ncncc1-c1ccccc1C(F)(F)F in your reply.
15.8 µM (active)

Recall and state the measured AC50 for COC(=O)/C=C/CSC1=N/C(=C/c2ccc(-n3cncn3)cc2)C(=O)N1 .
1 µM (active)

Identify the reported AC50 for the following entry. CCOC(=O)CSc1nnc(NC(=O)c2cccc(S(=O)(=O)N3CCCCCC3)c2)s1
inactive

Fill in AC50 for record CCCc1nnc(SCC(=O)N2CCCC(C)C2)n1CC1CCCO1 (stereo not drawn)
inactive

In one line, give reported AC50 of the entry CCCCOC(=S)NC(=O)c1sc2ccccc2c1Cl .
2 µM (active)

---

Target: Cytochrome P450 1A2 (Homo sapiens)
Assay: Cytochrome panel assay with activity outcomes; on activity, negative = inhibition: on the % scale 0 is the no-effect control and ±100 the full control effect
Details: recombinant CYP, pro-luciferin dealkylation, luminescence, p450-cyp1a2; series mostly up to 57.1 µM
Protocol: The P450 gene superfamily is involved in the metabolism and clearance of xenobiotics. This assay used various human CYP P450 isozymes to measure the dealkylation of various pro-luciferin substrates to luciferin. The luciferin is then measured by luminescence after the addition of a luciferase detection reagent. […] Inhibitors and some substrates limit the production of luciferin, and decrease measured luminescence. […] 8, Detection, 1 sec, ViewLux luminescent read […]
In all, about 16,000 compounds went through this assay and about 5,700 (36%) were called active. Inconclusive results (about 24%) are left out. The list shows a part of the results.
Consider the following molecules and their measured activity, negative = inhibition readings.

The examples below pair each entry with its known result.
compound_structure_string=O=C(O)[C@@H]1CCCN1 meas_value="-12% [at 11.4 µM] (inactive)"
compound_structure_string=CC(C)=CCC/C(C)=C/CO/N=C1/C[C@@H](O)[C@@H](O)[C@@H]2[C@@H]3C(=O)N(C(C)(C)C)C(=O)[C@H]3CC[C@@H]12 meas_value="-0.662% [at 11.4 µM] (inactive)"
compound_structure_string=O=C(O)c1ccc([N+](=O)[O-])c(P(=O)(O)O)c1 meas_value="-9.8% [at 11.4 µM] (inactive)"
compound_structure_string=CC(=O)C[C@H](O)[C@@H](NC(=O)OC(C)(C)C)C(C)C meas_value="0.505% [at 11.4 µM] (inactive)"

Provide one value: measured activity, negative = inhibition of NCC[C@H](N)C(=O)O
-8.87% [at 2.29 µM] (inactive)

Assign activity, negative = inhibition to the following record: Cc1cc(N=Cc2c(CO)cnc(C)c2O)c(N=Cc2c(CO)cnc(C)c2O)cc1C.[Zn]
-10.4% [at 2.29 µM] (inactive)

Entry OC[C@@H]1O[C@@H](O)[C@H](N=Cc2ccc3c(c2)OCO3)[C@@H](O)[C@@H]1O needs its activity, negative = inhibition filled in; supply it.
-24.4% [at 2.29 µM] (inactive)
